Just for reference, ChEMBL document CHEMBL4732098 is where these values come from.

Test system: COLO 320
Assay: Cytotoxicity against human COLO 320 cells assessed as reduction in cell viability incubated for 24 hrs by MTT assay
Assay type: cell-based
Details: COLO 320, 24 h
compounds and their reported pIC50
In textbook form, pIC50 equals minus log to base ten of the concentration in mol/L.

Solved cases (3 shown):
CC[C@@H]1CN(C)[C@H]2Cc3c(n(Cc4ccc(Cl)cc4)c4ccccc34)C(=O)C[C@H]1C2C(=O)OC (some centres not stated)    4.21
CC[C@@H]1CN(C)[C@H]2Cc3c(n(Cc4ccc(OC)cc4)c4ccccc34)C(=O)C[C@H]1C2C(=O)OC (some centres not stated)    4.11
CC[C@@H]1CN(C)[C@H]2Cc3c(n(Cc4ccc(C)cc4)c4ccccc34)C(=O)C[C@H]1C2C(=O)OC (some centres not stated)    4.28

Continue with the compound presented below.
Challenge: Given CC[C@@H]1CN(C)[C@H]2Cc3c(n(Cc4cccc(C)c4)c4ccccc34)C(=O)C[C@H]1C2C(=O)OC (some centres not stated) , state its recorded pIC50.
Response given: 4.09

---

Test system: COLO 320
Assay: Cytotoxicity against human COLO 320 cells assessed as reduction in cell viability incubated for 24 hrs by MTT assay
Format: cell-based
Details: COLO 320, 24 h
Classes are defined on IC50 with ranges zone 1 (below 50 µM), zone 2 (50 µM to below 80 µM), zone 3 (80 µM or more)

CC[C@H]1CN(C)[C@H]2Cc3c(n(Cc4ccc(Br)cc4)c4ccccc34)C(=O)C[C@H]1C2C(=O)OC (stereo partly specified)    zone 1
CC[C@@H]1CN(C)[C@H]2Cc3c(n(CCc4cccc(Br)c4)c4ccccc34)C(=O)C[C@H]1C2C(=O)OC (stereo partly specified)    zone 3
CC[C@@H]1CN(C)[C@H]2Cc3c(n(CCc4cccc(OC)c4)c4ccccc34)C(=O)C[C@H]1C2C(=O)OC (stereo partly specified)    zone 3
CC[C@@H]1CN(C)[C@H]2Cc3c(n(Cc4cc(OC)cc(OC)c4)c4ccccc34)C(=O)C[C@H]1C2C(=O)OC (stereo partly specified)    zone 3
CCCn1c2c(c3ccccc31)C[C@H]1C(C(=O)OC)[C@H](CC2=O)[C@H](CC)CN1C (stereo partly specified)    zone 3

Now turn to the next compound.
Challenge: Sort into band: CC[C@H]1CN(C)[C@H]2Cc3c([nH]c4ccccc34)C(=O)C[C@H]1C2C(=O)OC (stereo partly specified)
Response given: zone 2

---

compounds and their reported IC50
Tested on: COLO 320
Test: Cytotoxicity against human COLO 320 cells assessed as reduction in cell viability incubated for 24 hrs by MTT assay
Type: cell-based
Conditions: COLO 320, 24 h

Solved cases (2 shown):
CC[C@@H]1CN(C)[C@H]2Cc3c(n(Cc4ccccn4)c4ccccc34)C(=O)C[C@H]1C2C(=O)OC (stereo partly drawn)    > 100 µM
CC[C@H]1CN(C)[C@H]2Cc3c(n(CC)c4ccccc34)C(=O)C[C@H]1C2C(=O)OC (stereo partly drawn)    > 100 µM

Challenge: Given CC[C@@H]1CN(C)[C@H]2Cc3c(n(Cc4ccc(C(=O)c5ccccc5)cc4)c4ccccc34)C(=O)C[C@H]1C2C(=O)OC (stereo partly drawn) , state its recorded IC50.
Response given: > 100 µM

---

Test system: COLO 320
Assay: Cytotoxicity against human COLO 320 cells assessed as reduction in cell viability incubated for 24 hrs by MTT assay
Format: cell-based
Conditions: COLO 320, 24 h
IC50 strictly under 80 µM means Yes; at 80 µM or over means No.

Answered cases to consult:
CC[C@@H]1CN(C)[C@H]2Cc3c(n(Cc4ccc([N+](=O)[O-])cc4)c4ccccc34)C(=O)C[C@H]1C2C(=O)OC (stereo not given in full)    No
CC[C@@H]1CN(C)[C@H]2Cc3c(n(Cc4ccc(Br)cc4)c4ccccc34)C(=O)C[C@H]1C2C(=O)OC (stereo not given in full)    Yes
CCCn1c2c(c3ccccc31)C[C@H]1C(C(=O)OC)[C@H](CC2=O)[C@@H](CC)CN1C (stereo not given in full)    Yes

Challenge: For CC[C@@H]1CN(C)[C@H]2Cc3c(n(Cc4cccc([N+](=O)[O-])c4)c4ccccc34)C(=O)C[C@H]1C2C(=O)OC (stereo not given in full) , is the recorded IC50 below the cut-off of 80 µM?
Response given: No

Challenge: For C=CCn1c2c(c3ccccc31)C[C@H]1C(C(=O)OC)[C@H](CC2=O)[C@H](CC)CN1C (stereo not given in full) , is the recorded IC50 below the cut-off of 80 µM?
Response given: No

Challenge: For CC[C@@H]1CN(C)[C@H]2Cc3c(n(CC)c4ccccc34)C(=O)C[C@H]1C2C(=O)OC (stereo not given in full) , is the recorded IC50 below the cut-off of 80 µM?
Response given: No

Challenge: For CC[C@@H]1CN(C)[C@H]2Cc3c(n(CCCO)c4ccccc34)C(=O)C[C@H]1C2C(=O)OC (stereo not given in full) , is the recorded IC50 below the cut-off of 80 µM?
Response given: No

Challenge: For CC[C@@H]1CN(C)[C@H]2Cc3c(n(Cc4ccccc4C)c4ccccc34)C(=O)C[C@H]1C2C(=O)OC (stereo not given in full) , is the recorded IC50 below the cut-off of 80 µM?
Response given: No

Challenge: For CC[C@H]1CN(C)[C@H]2Cc3c(n(Cc4ccc(Cl)cc4)c4ccccc34)C(=O)C[C@H]1C2C(=O)OC (stereo not given in full) , is the recorded IC50 below the cut-off of 80 µM?
Response given: Yes

Challenge: For CC[C@@H]1CN(C)[C@H]2Cc3c(n(Cc4cccc(Cl)c4)c4ccccc34)C(=O)C[C@H]1C2C(=O)OC (stereo not given in full) , is the recorded IC50 below the cut-off of 80 µM?
Response given: Yes

Challenge: For CC[C@@H]1CN(C)[C@H]2Cc3c(n(Cc4cccc(OC)c4)c4ccccc34)C(=O)C[C@H]1C2C(=O)OC (stereo not given in full) , is the recorded IC50 below the cut-off of 80 µM?
Response given: No

Challenge: For CC[C@@H]1CN(C)[C@H]2Cc3c(n(CCc4ccc(Br)cc4)c4ccccc34)C(=O)C[C@H]1C2C(=O)OC (stereo not given in full) , is the recorded IC50 below the cut-off of 80 µM?
Response given: No

Challenge: For CC[C@@H]1CN(C)[C@H]2Cc3c(n(CCc4ccc(OC)cc4)c4ccccc34)C(=O)C[C@H]1C2C(=O)OC (stereo not given in full) , is the recorded IC50 below the cut-off of 80 µM?
Response given: Yes

Challenge: For CC[C@H]1CN(C)[C@H]2Cc3c(n(Cc4ccc(OC)cc4)c4ccccc34)C(=O)C[C@H]1C2C(=O)OC (stereo not given in full) , is the recorded IC50 below the cut-off of 80 µM?
Response given: Yes

Challenge: For CC[C@@H]1CN(C)[C@H]2Cc3c([nH]c4ccccc34)C(=O)C[C@H]1C2C(=O)OC (stereo not given in full) , is the recorded IC50 below the cut-off of 80 µM?
Response given: No
